Each recorded value in this set is attributed to patent US20220370556A1.

Biological target: nomacopan (EV576, OmCI protein, Coversin), Ornithodoros moubata, mature form, amino acids 19 to 168 of SEQ ID NO: 2 (SEQ ID NO: 4) (Ornithodoros moubata, UniProt Q5YD59)
Sequence (Q5YD59 19-168): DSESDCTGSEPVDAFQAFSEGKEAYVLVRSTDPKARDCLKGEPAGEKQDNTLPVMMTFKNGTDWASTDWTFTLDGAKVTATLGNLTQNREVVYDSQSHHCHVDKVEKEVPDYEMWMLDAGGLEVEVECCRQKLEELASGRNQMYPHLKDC

SMILES NOTATION: CCCCC/C=C\C[C@@H](O)/C=C/C=C/C=C\[C@@H](O)CCCC(=O)O
Kd: 0.1 to 0.3 nM
